System: NCI-H23 lung
Assay: NCI tumour cell line growth inhibition, 48 h
We begin with a simple list: items and their reported TGI.
quantity measured: TGI (µM)

[[record]]
smiles_entry = "O=c1[nH]nc(-c2ccc([N+](=O)[O-])cc2)[nH]1"
measurement_target = "NCI-H23 lung"
quantity_measured = "TGI"
qualifier = ">"
reading = 100

[[record]]
smiles_entry = "Nc1nc(Cl)cc(NCCCCCCNc2cc(Cl)nc(N)n2)n1"
measurement_target = "NCI-H23 lung"
quantity_measured = "TGI"
qualifier = ">"
reading = 100

[[record]]
smiles_entry = "O=C(Nc1cccc(Cl)c1)c1cc(Cl)ccc1O"
measurement_target = "NCI-H23 lung"
quantity_measured = "TGI"
qualifier = "="
reading = 3.55

[[record]]
smiles_entry = "Cc1cc2c(-c3nc4ccccn4c3NC34CC5CC(CC(C5)C3)C4)c(O)c(O)cc2c(O)c1-c1c(C)cc2c(-c3nc4ccccn4c3NC34CC5CC(CC(C5)C3)C4)c(O)c(O)cc2c1O"
measurement_target = "NCI-H23 lung"
quantity_measured = "TGI"
qualifier = "="
reading = 3.09

[[record]]
smiles_entry = "Clc1sc(Cl)c2c1[C@H](Br)C[C@@H]2Cl"
measurement_target = "NCI-H23 lung"
quantity_measured = "TGI"
qualifier = "="
reading = 43.2


###

System: EKVX NSCLC
Assay: NCI tumour cell line growth inhibition, 48 h
quantity measured: GI50

[[record]]
smiles_entry = "NCCNc1nc2ccccc2c2c(=O)c3cc(F)cc(Cl)c3sc12"
measurement_target = "EKVX NSCLC"
quantity_measured = "GI50"
reading = "1.6 µM"

[[record]]
smiles_entry = "Cc1cc(Nc2cc(N3CCN(C)CC3)nc(C#Cc3ccccc3)n2)n[nH]1"
measurement_target = "EKVX NSCLC"
quantity_measured = "GI50"
reading = "11 µM"

[[record]]
smiles_entry = "COc1cc2c(c(OC)c1OC)-c1ccc(SC)c(=O)cc1[C@@H](NC(=O)c1ccc(F)cc1)CC2"
measurement_target = "EKVX NSCLC"
quantity_measured = "GI50"
reading = "< 0.01 µM"

[[record]]
smiles_entry = "Oc1cccc(-c2nc(N3CCOCC3)c3oc4ncccc4c3n2)c1"
measurement_target = "EKVX NSCLC"
quantity_measured = "GI50"
reading = "0.213 µM"

[[record]]
smiles_entry = "CC(=O)c1c(Nc2ccc(F)c(F)c2F)[nH]c2c(F)cc(F)cc2c1=O"
measurement_target = "EKVX NSCLC"
quantity_measured = "GI50"
reading = "0.303 µM"

[[record]]
smiles_entry = "O=C1c2c(O)ccc(O)c2C(=O)c2c(NCCNCCO)ccc(NCCNCCO)c21"
measurement_target = "EKVX NSCLC"
quantity_measured = "GI50"
reading = "0.564 µM"

[[record]]
smiles_entry = "CC[C@H](C)[C@H](NC(=O)N[C@@H](C)c1ccccc1)C(=O)N(C)[C@H](C[C@@H](OC(C)=O)c1nc(C(=O)N[C@@H](Cc2ccccc2)C[C@H](C)C(=O)OC)cs1)C(C)C"
measurement_target = "EKVX NSCLC"
quantity_measured = "GI50"
reading = "37.5 µM"

[[record]]
smiles_entry = "CCOc1cccc(/C=N/NC(=O)Cc2ccc(Nc3ccnc(C(F)(F)F)c3)cc2)c1O"
measurement_target = "EKVX NSCLC"
quantity_measured = "GI50"
reading = "3.87 µM"

[[record]]
smiles_entry = "CCCC(=O)Nc1cn(COC)c(C(=O)N2C[C@H]3C[C@@]34C2=CC(=O)c2[nH]cc(C)c24)n1"
measurement_target = "EKVX NSCLC"
quantity_measured = "GI50"
reading = "39.1 µM"


###

Tested on: UACC-62 melanoma
Assay: NCI tumour cell line growth inhibition, 48 h
quantity measured: GI50

[[record]]
compound = "Fc1ccc(-c2cc(-c3cn[nH]c3-c3ccccn3)ccn2)cc1"
quantity_measured = "GI50"
reading = "> 25 µM"

[[record]]
compound = "NCCNc1nc2ccccc2c2c(=O)c3cc(F)cc(Cl)c3sc12"
quantity_measured = "GI50"
reading = "1.66 µM"

[[record]]
compound = "O=C(Nc1nc2ccc(F)cc2s1)c1cccnc1Nc1ccc(Cl)cc1Cl"
quantity_measured = "GI50"
reading = "2.57 µM"

[[record]]
compound = "COc1ccc(CNC(=O)c2ccc(-c3cc(-c4nnc(C)o4)ccc3C)cc2)cc1"
quantity_measured = "GI50"
reading = "11.1 µM"

[[record]]
compound = "COc1ccc(-c2nn(-c3cccc(Cl)c3)cc2/C=C2\\C(=N)N(c3ccccc3)N=C2N)cc1"
quantity_measured = "GI50"
reading = "0.331 µM"

[[record]]
compound = "COc1ccc2nc3cc(Cl)ccc3c(Nc3ccc(O)c(CN4CCCC4)c3)c2c1"
quantity_measured = "GI50"
reading = "1.71 µM"

[[record]]
compound = "O=c1ncccn1C1OC(CO)C(O)C1F (centres undefined)"
quantity_measured = "GI50"
reading = "> 100 µM"

[[record]]
compound = "COc1ccc(C2NC(=S)NC3=C2COc2ccc(F)cc23)cc1OC (centres undefined)"
quantity_measured = "GI50"
reading = "14.8 µM"

[[record]]
compound = "C#CCn1cc(C=C2C(=O)NC(=S)NC2=O)c2cc(Cl)ccc21"
quantity_measured = "GI50"
reading = "1.85 µM"


###

Tested on: KM12 colon
Assay: NCI tumour cell line growth inhibition, 48 h
quantity measured: GI50

[[record]]
molecule = "Cc1ccc2c(C(C[N+](=O)[O-])c3ccco3)c(-c3ccccc3)[nH]c2c1 (stereo not given)"
quantity_measured = "GI50"
reading = "21500 nM"

[[record]]
molecule = "NC(=O)c1c(NC(=O)c2cccc(C(F)(F)F)c2)sc2c1CCC(=O)C2"
quantity_measured = "GI50"
reading = "394 nM"

[[record]]
molecule = "Cc1cc([C@H](C)Nc2nccc(N3C(=O)OC[C@@H]3[C@H](C)F)n2)ncc1-c1ccnc(C(F)(F)F)c1"
quantity_measured = "GI50"
reading = "33800 nM"

[[record]]
molecule = "O=C1c2c(O)ccc(O)c2C(=O)c2c(NCCNCCO)ccc(NCCNCCO)c21"
quantity_measured = "GI50"
reading = "459 nM"

[[record]]
molecule = "C/C(=N\\O)[C@H]1CC[C@@]2(C)[C@@H]3CC[C@H]4C(C)(C)/C(=N/O)CC[C@@]45CC35CC[C@]12C (stereo not given in full)"
quantity_measured = "GI50"
reading = "2840 nM"


###

Tested on: SF-539 CNS
Assay: NCI tumour cell line growth inhibition, 48 h
quantity measured: TGI

[[record]]
compound = "COC(=O)C1=C(C(=O)OC)C(C(=O)OC)C(C(=O)OC)C(C(=O)OC)(C(=O)OC)C(C(=O)OC)=C1C(=O)OC (stereo unspecified)"
reading = "36.7 µM"

[[record]]
compound = "Cc1ccc(-c2cc(C(Cl)Cl)on2)cc1"
reading = "> 100 µM"

[[record]]
compound = "O=c1[nH]nc(-c2ccc([N+](=O)[O-])cc2)[nH]1"
reading = "> 100 µM"

[[record]]
compound = "COc1ccc(-c2nn3ncccc3c2-c2ccnc(Nc3cccc(C(F)(F)F)c3)n2)cc1"
reading = "> 25 µM"

[[record]]
compound = "Fc1cccc(F)c1C1SCc2nc3cc(Cl)ccc3n21 (stereo unspecified)"
reading = "> 100 µM"

[[record]]
compound = "COC12C=C/C(=C(/C(=O)OCc3csc(SC)n3)C(=O)CCCCCCCCC3(OC)C=C/C(=C(/C(=O)OCc4cnc(SC)s4)C(=O)CCCCCCCC1)O3)O2 (stereo unspecified)"
reading = "19.8 µM"

[[record]]
compound = "Cn1c2ccccc2c2c3c(=O)[nH][nH]c(=O)c3c3c4ccccc4n(C)c3c21"
reading = "> 100 µM"

[[record]]
compound = "O=c1/c(=C/c2ccc3c(c2)OCO3)sc2nnc(Cc3ccccc3)n12"
reading = "> 100 µM"

[[record]]
compound = "CC(C)(C)[Si](C)(C)OC1CCOC1(O)c1ccccn1 (stereo unspecified)"
reading = "> 100 µM"

[[record]]
compound = "C[N+]1(CCCCN2c3ccccc3Sc3cc(N=[N+]=[N-])ccc32)CCN(C(=O)CCNC(=O)Cc2ccc(C(=O)c3ccccc3)cc2)CC1"
reading = "> 76.9 µM"

[[record]]
compound = "Cc1cc([C@H](C)Nc2nccc(N3C(=O)OC[C@@H]3[C@H](C)F)n2)ncc1-c1ccnc(C(F)(F)F)c1"
reading = "> 100 µM"

[[record]]
compound = "C=CCN(c1cc(OC)c2[nH]c(C(=O)O)c(C)c2c1[N+](=O)[O-])S(C)(=O)=O"
reading = "> 100 µM"

[[record]]
compound = "O=C(NCCCn1ccnc1[N+](=O)[O-])C(=O)NCCCn1ccnc1[N+](=O)[O-]"
reading = "> 100 µM"

[[record]]
compound = "COC(=O)Cc1c2n(c3ccccc13)C(=O)N1c3ccccc3C(CC(=O)OC)C21 (stereo unspecified)"
reading = "49.4 µM"

[[record]]
compound = "O=C1CCCC2=C1CC1=C(CCCC1=O)N2c1ccc(-c2ccccc2)cc1"
reading = "> 100 µM"

[[record]]
compound = "OCCN(CCO)c1ncnc2c1sc(=S)n2-c1ccccc1"
reading = "> 100 µM"

[[record]]
compound = "CN1C2CCC1C(CO)C(=O)C2 (stereo unspecified)"
reading = "52.9 µM"

[[record]]
compound = "Cc1nc2cc(Nc3nc(Nc4ccc(F)cc4)nc(-c4ccc(Cl)cc4)n3)ccc2n1Cc1ccccc1"
reading = "28.7 µM"

[[record]]
compound = "O=C1Cc2ccccc2CCc2ccccc21"
reading = "> 100 µM"

[[record]]
compound = "CC(C)NC(=O)OCc1c(COC(=O)NC(C)C)n(C)c2c1ccc1cc(Cl)c(Cl)cc12"
reading = "27.1 µM"

[[record]]
compound = "Cc1nnc(N=Nc2c(O)[nH]c3ccccc23)[nH]c1=O"
reading = "> 100 µM"

